- SUBJECT OF TEST: T1, Human HEVM recombinant protein (Sino Biological, 10334-H02H) (human, UniProt Q92956 39-202)
- T1 construct: construct known only by catalogue number; also called HVEM; human HVEM
- T1 sequence (looked up): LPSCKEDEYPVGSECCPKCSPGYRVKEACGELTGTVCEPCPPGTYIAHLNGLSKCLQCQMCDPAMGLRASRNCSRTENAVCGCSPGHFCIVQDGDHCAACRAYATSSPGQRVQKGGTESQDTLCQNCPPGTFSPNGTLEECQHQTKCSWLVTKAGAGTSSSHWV
- MEASUREMENT DESCRIPTION: competition ELISA, competitor BTLA-His
METRIC: IC50 (nM)
Kindly provide the numeric value in nM only, without the unit symbol.

// IC50 value for Ab_083 (H5S20-49A39A) (antibody, V domains shown, also called Ab_153; Ab_83) VH: EVQLQQSGAELVKPGASVKLSCTASGFNIKDTYVHWVKERPEQGLEWIGRIDPANDNTKYAPKFQVKATITADTSSNTAYLQLSSLTSEDNAVYYCAPYGNYPAWFAYWGQGTLVTVSA VL: DVLMTQTPLSLPVSLGDQVSISCRSSQNIVHSNGNTYLEWYLQKPGQSPKLLIYKVSNRFSGVPDRFSGSGSGTDFTLKISRVEAEDLGVYYCFQGSHVPLTFGAGTKLELK : 1.9

// IC50 value for Ab_087 (H5S20-59A43A) (antibody, V domains shown, also called Ab_87) VH: EVKLVESGGGLVKPGGSLKLSCAASGFTFSSYAMSWVRQTPEKRLEWVASISSGSSTYYPDSVKGRFTISRDNARNILYLQMSSLRSEDTAMYYCAKGRGYGNYLYAMDYWGQGTSVTVSS VL: DIVMTQSQKFMSTSVGDRVSVTCKASQNVGTNVAWYQQKPGQSPKALIYSASYRYSGVPDRFTGSGSGTDFTLTISNVQSEDLAEYFCQQYNSYPLTFGGGTKLEIK : 5.2

// IC50 value for Ab_028 (H5S15-33A29A) (antibody, V domains shown, also called Ab_28) VH: QVQLKQSGPGLVQPSQSLSITCTVSGFSLTTYGVHWVRQSPGKGLEWLGVIWSGGNTDYNPAFISRLSISKDNSKSQVFFKMNTLQASDTAIYYCARRGYNKGYAMDYWGQGTSFTVSS VL: EIVLTQSPALMTASPGEKVTITCSVSSTISSRNLHWYQQKSEASPKPWIYGTSNLASGVPVRFSGSGSGTSYSLTISSMEAEDAATYYCQQWNSYPLTFGSGTKLEIK : 1.4

Origin of measurements: patent US20240317871A1
